# System: SKI-DLCL cells
# experimentalParameters: SKI-DLCL; single agent at its IC50 dose
Could you please report measured Viability (% of control) for the items listed next?

Using the record for O=C1c2c(O)ccc(O)c2C(=O)c2c(NCCNCCO)ccc(NCCNCCO)c21 [Mitox, mitoxantrone] , report its Viability (% of control).
50 % of control

Using the record for C[C@H]1C[C@@H]2[C@H]([C@@H](O)C[C@@]3(C)[C@H]2CC[C@]3(O)C(=O)CO)[C@@]2(C)C=CC(=O)C=C12 [Metpred, methylprednisolone] , report its Viability (% of control).
51 % of control

Using the record for Nc1ccn([C@@H]2O[C@H](CO)[C@@H](O)[C@@H]2O)c(=O)n1 [AraC, cytosine arabinoside] , report its Viability (% of control).
50 % of control

Using the record for COc1cccc2c1C(=O)c1c(O)c3c(c(O)c1C2=O)C[C@@](O)(C(=O)CO)C[C@@H]3O[C@H]1C[C@H](N)[C@H](O)[C@H](C)O1 [Dox, doxorubicin] , report its Viability (% of control).
50 % of control

Using the record for CC[C@]1(O)C[C@@H]2CN(CCc3c([nH]c4ccccc34)[C@@](C(=O)OC)(c3cc4c(cc3OC)N(C)[C@H]3[C@@](O)(C(=O)OC)[C@H](OC(C)=O)[C@]5(CC)C=CCN6CC[C@]43[C@@H]65)C2)C1 [Vinb, vinblastine] , report its Viability (% of control).
50 % of control
